Sourced from patent US20120264685A1

# method: Stability in simulated gastric fluid
# Format: in vitro ADME
# experimental_context: simulated gi fluid; 2 μM, 37° C., pH 1.5; read-out: half-life (t1/2) in simulated gastric fluid
# Method: Reactions were terminated by the addition of TFA/H2O ([…], 10% (v/v)). […] The column was equilibrated with TFA/H20, at a flow rate of 1 mL/min. […] The absorbance was monitored at 206 nm using UV detector and peaks were collected manually prior to ESI-MS analysis.
Where a SMILES comes first, the peptide text is derived from it. [ ]: non-standard residue; d: D form. ξ: configuration not given here. ξαMeBip(2'-Et,4'-OMe) = CCc1cc(OC)ccc1-c1ccc(CC(C)(N)C(=O)O)cc1; ξBip(2'-Et-4'-OMe) = CCc1cc(OC)ccc1-c1ccc(CC(N)C(=O)O)cc1; ξαMePhe(2,6-F2) = CC(N)(Cc1c(F)cccc1F)C(=O)O; ξαMe(hhPhe) = CC(N)(CCCc1ccccc1)C(=O)O; ξαMePhe(2-F) = CC(N)(Cc1ccccc1F)C(=O)O; ξhhPhe = NC(CCCc1ccccc1)C(=O)O; ξαMeD = CC(N)(CC(=O)O)C(=O)O; ξαMeS = CC(N)(CO)C(=O)O
measured_attribute: half-life (h)
The figure you give is taken to be in h; do not add the unit.

{"compound": "CCc1cc(OC)ccc1-c1ccc(CC(C)(NC(=O)C(C)(CC(=O)O)NC(=O)[C@H](CO)NC(=O)[C@@H](NC(=O)[C@H](Cc2ccccc2)NC(=O)[C@@H](NC(=O)CNC(=O)[C@H](CCC(N)=O)NC(=O)[C@H](C)NC(=O)[C@H](Cc2c[nH]cn2)NC(=O)[C@@H](N)C(C)C)[C@@H](C)O)[C@@H](C)O)C(=O)NC(CCCc2ccccc2)C(N)=O)cc1 (some centres unmarked) [compound 58] (H-VHAQGTFTS[ξαMeD][ξαMeBip(2'-Et,4'-OMe)][ξhhPhe]-NH2)", "half-life (h)": 7}

Prompt line: What half-life value was documented for this compound, CCc1cc(OC)ccc1-c1ccc(CC(C)(NC(=O)[C@H](CC(=O)O)NC(=O)C(C)(CO)NC(=O)[C@@H](NC(=O)C(C)(Cc2c(F)cccc2F)NC(=O)[C@@H](NC(=O)CNC(=O)[C@H](CCC(=O)O)NC(=O)[C@H](C)NC(=O)[C@H](Cc2c[nH]cn2)NC(=O)[C@@H](N)C(C)C)[C@@H](C)O)[C@@H](C)O)C(=O)NC(C)(CCCc2ccccc2)C(N)=O)cc1 (some centres unmarked) [compound 178] (H-VHAEGT[ξαMePhe(2,6-F2)]T[ξαMeS]D[ξαMeBip(2'-Et,4'-OMe)][ξαMe(hhPhe)]-NH2) ?
Response line: 4

Prompt line: Entry CCc1cc(OC)ccc1-c1ccc(CC(C)(NC(=O)[C@H](CC(=O)O)NC(=O)C(C)(CO)NC(=O)[C@@H](NC(=O)C(C)(Cc2ccccc2F)NC(=O)[C@@H](NC(=O)CNC(=O)[C@H](CCC(=O)O)NC(=O)[C@H](C)NC(=O)[C@H](Cc2c[nH]cn2)NC(=O)[C@@H](N)C(C)C)[C@@H](C)O)[C@@H](C)O)C(=O)NC(C)(CCCc2ccccc2)C(N)=O)cc1 (some centres unmarked) [compound 170] (H-VHAEGT[ξαMePhe(2-F)]T[ξαMeS]D[ξαMeBip(2'-Et,4'-OMe)][ξαMe(hhPhe)]-NH2) : reported half-life = ?
Response line: 4

Prompt line: Quick check: half-life of CCc1cc(OC)ccc1-c1ccc(CC(NC(=O)[C@H](CC(=O)O)NC(=O)[C@H](CO)NC(=O)[C@@H](NC(=O)C(C)(Cc2ccccc2F)NC(=O)[C@@H](NC(=O)CNC(=O)[C@H](CCC(N)=O)NC(=O)[C@H](C)NC(=O)[C@H](Cc2c[nH]cn2)NC(=O)[C@@H](N)C(C)C)[C@@H](C)O)[C@@H](C)O)C(=O)NC(C)(CCCc2ccccc2)C(N)=O)cc1 (some centres unmarked) [compound 92] (H-VHAQGT[ξαMePhe(2-F)]TSD[ξBip(2'-Et-4'-OMe)][ξαMe(hhPhe)]-NH2) ?
Response line: 4

Prompt line: What value of half-life has been reported for the following compound? CCc1cc(OC)ccc1-c1ccc(CC(NC(=O)C(C)(CC(=O)O)NC(=O)C(C)(CO)NC(=O)[C@@H](NC(=O)[C@H](Cc2ccccc2)NC(=O)[C@@H](NC(=O)CNC(=O)[C@H](CCC(=O)O)NC(=O)[C@H](C)NC(=O)[C@H](Cc2c[nH]cn2)NC(=O)[C@@H](N)C(C)C)[C@@H](C)O)[C@@H](C)O)C(=O)NC(C)(CCCc2ccccc2)C(N)=O)cc1 (some centres unmarked) [compound 112] (H-VHAEGTFT[ξαMeS][ξαMeD][ξBip(2'-Et-4'-OMe)][ξαMe(hhPhe)]-NH2)
Response line: 0.5
